These measurements were taken from ChEMBL document CHEMBL1201862.

Exercise: state measured GI50 for each of the compounds provided.
Test system: HOP-18
PROTOCOL DETAILS: NCI tumour cell line growth inhibition, 48 h
Activity calls are given as the source filed them. No stated cut-off is given here; in the data, active = GI50 up to about 1.1 µM and inactive = higher.

Task: Query: GI50; subject: CCOC(=O)/C=C/c1c[nH]c(C(=O)OCC)c1
Output: > 100 µM (inactive)

Task: Which GI50 value is on record for CCOC(=O)C(C)(NC(=O)c1ccc(NCc2ccc3nc(NC(=O)c4ccccc4)nc(NC(=O)c4ccccc4)c3c2)cc1)C(=O)OCC ?
Output: 37.8 µM (inactive)

Task: For the compound shown here, COc1cc2cnc3c4cc(OC)c(OC(C)C)cc4ccc3c2cc1OC , give the reported GI50.
Output: > 100 µM (inactive)

Task: So what's the measured GI50 for this one? O=c1oc2c3ccc4ccccc4c3n(CCN3CCOCC3)c2c2ccccc12
Output: > 100 µM (inactive)

Task: Quick one: GI50 for CC(=O)Oc1ccc(C(c2ccc(OC(C)=O)cc2)c2ccccn2)cc1 ?
Output: > 47 µM (inactive)

Task: Using the record for C[n+]1[se]c2ccccc2c1Cl , report its GI50.
Output: 20.7 µM (inactive)

Task: Look up GI50 for this compound: CN(C)CCC1(C2=CCCC2)CC/C(=C\c2ccc(Cl)cc2)C1=O (stereo not given)
Output: 11.9 µM (inactive)

Task: Look at this compound and give its reported GI50. O=C(Cc1nc2sc3c(c2c(=O)[nH]1)CCCC3)Nc1ccccc1
Output: > 100 µM (inactive)

Task: What does the record list as GI50 for Clc1ccccc1C1SCc2nc3ccccc3n21 (stereo not given) ?
Output: < 0.01 µM (active)

Task: Fill in the blank: the reported GI50 of CC(C)c1cc2c(O)c(c1)Cc1cc(C(C)C)cc(c1O)Cc1cc(C(C)C)cc(c1O)Cc1cc(C(C)C)cc(c1O)C2 is ____.
Output: > 100 µM (inactive)
